system: Human dendritic cells; assay: CD86 levels at the DC cell surface (flow cytometry); type: cell-based; settings: DC from individual B; 100 μg, 48 hours
property_label: The percentage of CD86^hi DC following treatment (%)

[
  {
    "substance": "5′GGTGGG3′ [N2A]",
    "measured_value": 16
  },
  {
    "substance": "5′ GTGTGT3′ [N1B]",
    "measured_value": 19
  }
]

* * *

System: female BALB/C mice
Test: Vaccination with hepatitis surface antigen (intramuscular), anti-HbsAg end-point dilution ELISA
Format: in vivo
Conditions: HbsAg 1 μg + Alum 10 μg + polynucleotide 100 μg i.m. day 0 and 21, plasma day 31
Description: Immunization with recombinant hepatitis B surface antigen (HbsAg; Cortex Biochemical, San Leandro, Calif., USA) combined with aluminum hydroxide (Alum; SuperFos Biosector, Vedback, Denmark) and/or with N3A, N6A or N6B polynucleotides, was conducted on 6-8 week old female BALB/C mice (Charles River, St-Constant, Qc, Canada). […] Antibodies specific to HbsAg were detected and quantified by end-point dilution assay ELISA. […]
# reported End-point titers IgG total, mean ± SD; entries follow

[
  {
    "substance": "5′GGGTGG3′ [N3A]",
    "End-point titers IgG total, mean ± SD": "1985 ± 1748"
  },
  {
    "substance": "5′GGGAGG3′ [N6B] (DNA, backbone not given here; further chemistry not fully specified)",
    "End-point titers IgG total, mean ± SD": "660 ± 364"
  },
  {
    "substance": "5′GGGAGG3′ [N6A] (unmodified DNA)",
    "End-point titers IgG total, mean ± SD": "1185 ± 607"
  },
  {
    "substance": "5′GGGTGG3′ [N3B]",
    "End-point titers IgG total, mean ± SD": "437 ± 305"
  }
]

Data credit: patent US7371734B2
